Hello, the source for this data is ChEMBL document CHEMBL4673374, in case you need it.

pIC50 values by entry
- Tested on: MCF-10A
- Run Description: Cytotoxicity against human MCF-10A cells after 48 hrs by MTT assay
- Assay type: cell-based
Lab note: report pIC50 as minus log10 of the concentration in molar units, number only.

CCN(Cc1ccccc1)c1ccc2cc(C(=O)NCCCC[P+](c3ccccc3)(c3ccccc3)c3ccccc3)c(=O)oc2c1 ... 4.82
CCN(CC)c1ccc2cc(C(=O)NCCCC[P+](c3ccccc3)(c3ccccc3)c3ccccc3)c(=O)oc2c1 ... 4.34

The molecule identified as "CCN(CC)c1ccc2cc(C(=O)OCCCC[P+](c3ccccc3)(c3ccccc3)c3ccccc3)c(=O)oc2c1" registered its pIC50 at 4.08

---

pIC50 values by entry
- System: MDA-MB-231
- Run Description: Cytotoxicity against human MDA-MB-231 cells after 48 hrs by MTT assay
- Format: functional, cell-based
- Conditions: MDA-MB-231, 48 h
Lab note: report pIC50 as minus log10 of the concentration in molar units, number only.

Below, 2 compounds whose answers are already recorded.
CCN(Cc1ccccc1)c1ccc2cc(C(=O)NCCCC[P+](c3ccccc3)(c3ccccc3)c3ccccc3)c(=O)oc2c1 ... 5.43
CCN(CC)c1ccc2cc(C(=O)NCCCC[P+](c3ccccc3)(c3ccccc3)c3ccccc3)c(=O)oc2c1 ... 5.52

Okay, next one:
The compound identified as "CCN(CC)c1ccc2cc(C(=O)OCCCC[P+](c3ccccc3)(c3ccccc3)c3ccccc3)c(=O)oc2c1" registered its pIC50 at 4.53

---

- System: SK-BR-3
- Run Description: Cytotoxicity against human SK-BR-3 cells after 48 hrs by MTT assay
- Format: functional, cell-based
- Conditions: SK-BR-3, 48 h
IC50 values by entry

Below, 2 molecules whose answers are already recorded.
CCN(CC)c1ccc2cc(C(=O)NCCCC[P+](c3ccccc3)(c3ccccc3)c3ccccc3)c(=O)oc2c1 ... 3.46 µM
CCCCNC(=O)c1cc2ccc(N(CC)CC)cc2oc1=O ... > 100 µM

The molecule identified as "CCN(Cc1ccccc1)c1ccc2cc(C(=O)NCCCC[P+](c3ccccc3)(c3ccccc3)c3ccccc3)c(=O)oc2c1" registered its IC50 at 2.73 µM

The molecule identified as "CCN(CC)c1ccc2cc(C(=O)OCCCC[P+](c3ccccc3)(c3ccccc3)c3ccccc3)c(=O)oc2c1" registered its IC50 at 30.9 µM

The molecule identified as "CCCC[P+](c1ccccc1)(c1ccccc1)c1ccccc1" registered its IC50 at > 100 µM

---

- System: MCF-10A
- Run Description: Cytotoxicity against human MCF-10A cells after 48 hrs by MTT assay
- Type: cell-based
Measured Endpoint: IC50

Below, 2 compounds whose answers are already recorded.
CCCC[P+](c1ccccc1)(c1ccccc1)c1ccccc1 ... > 100 µM
CCCCNC(=O)c1cc2ccc(N(CC)CC)cc2oc1=O ... > 100 µM

The compound identified as CC/C(=C(\c1ccccc1)c1ccc(OCCN(C)C)cc1)c1ccccc1 [TAMOXIFEN] registered its IC50 at > 50 µM
